Every entry's value here was drawn from PubChem BioAssay AID652105.

- TARGET DESC: Phosphatidylinositol 5-phosphate 4-kinase type-2 alpha (Homo sapiens) (UniProt P48426)
- Sequence (P48426 whole entry, looked up): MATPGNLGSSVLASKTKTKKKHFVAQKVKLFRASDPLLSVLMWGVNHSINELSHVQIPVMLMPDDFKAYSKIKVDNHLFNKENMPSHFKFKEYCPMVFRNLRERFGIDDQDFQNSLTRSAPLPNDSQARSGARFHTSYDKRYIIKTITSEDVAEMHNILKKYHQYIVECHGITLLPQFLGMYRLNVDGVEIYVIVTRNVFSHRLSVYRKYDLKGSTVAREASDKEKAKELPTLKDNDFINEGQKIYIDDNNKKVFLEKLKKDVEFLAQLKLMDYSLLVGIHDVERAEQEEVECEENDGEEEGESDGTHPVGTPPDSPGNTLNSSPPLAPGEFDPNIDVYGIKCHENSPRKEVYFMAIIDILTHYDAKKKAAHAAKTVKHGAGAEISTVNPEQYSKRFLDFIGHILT
- PROCEDURE TEXT: qHTS for Inhibitors of phosphatidylinositol 5-phosphate 4-kinase (PI5P4K); note: value at the top dose of about 77 µM; % is set by controls: 0 for no effect and ±100 for the full control effect
- CONDITION SET: PI5P4Kalpha enzyme, ADP-Glo luminescence, 60 min; active compounds read low
Out of some 330,000 compounds screened, about 4,100 (1.2%) were called active. Roughly 2% stayed inconclusive and do not appear here. What follows is part of a selection rich in actives, with near analogues and random picks from the rest.

>  <COMPOUND>
O=C(/C=C/c1c(F)cccc1Cl)Nc1nn[nH]n1

>  <max response / %>
-56.7

$$$$
>  <COMPOUND>
COc1ccc(-c2ccc3[nH]c4c(c3c2)CCN2C[C@H]3[C@H](C)ON(C)[C@H]3C[C@@H]42)cc1

>  <max response / %>
0.74

$$$$
>  <COMPOUND>
Cc1ccc(NC(=O)Cn2c(C)csc2=O)cc1

>  <max response / %>
6.3

$$$$
>  <COMPOUND>
O=C(CCc1ccc(O)cc1)NN=Cc1cc(Br)ccc1O

>  <max response / %>
-16.2

$$$$
>  <COMPOUND>
NNc1cccc(C=Cc2ccccc2)cc1=O

>  <max response / %>
-74.4

$$$$
>  <COMPOUND>
O=C(NNC(=O)c1cc2c(s1)CCCC2)c1ccccc1

>  <max response / %>
0.43

$$$$
>  <COMPOUND>
O=C(CCc1ccccc1)Nc1nn[nH]n1

>  <max response / %>
-6.47

$$$$
>  <COMPOUND>
Cc1ccc(C)c(C(O)c2ncc(-c3cccc4ccccc34)[nH]2)c1 (stereo not drawn)

>  <max response / %>
-1.21

$$$$
>  <COMPOUND>
CCCCCn1nnnc1-c1nc2cc3ccccc3cc2[nH]c1=O

>  <max response / %>
-6.84

$$$$
>  <COMPOUND>
Cc1ccc(/C=N/NC(=S)NC2CCCCC2)o1

>  <max response / %>
-0.109

$$$$
>  <COMPOUND>
CC[C@@H]1Cc2cc(O)ccc2C2=C1c1ccc(O)cc1C[C@H]2CC

>  <max response / %>
-54.7

$$$$
>  <COMPOUND>
COc1cccc2c1C(=O)c1c(O)c3c(c(O)c1C2=O)CC(O)(C(C)=NNC(=O)c1ccc(Cl)c(Cl)c1)CC3OC1CC(N)C(O)C(C)O1 (stereo not drawn)

>  <max response / %>
-61.1

$$$$
>  <COMPOUND>
CCCNC(=O)c1cc(C2CCCCN2S(=O)(=O)c2ccc(C#N)cc2)on1 (stereo not drawn)

>  <max response / %>
7.08

$$$$
>  <COMPOUND>
O=Cc1cn(CCOc2ccc(F)cc2)c2ccccc12

>  <max response / %>
7.27

$$$$
>  <COMPOUND>
O=c1oc(/C=C/c2ccccc2)nc2ccccc12

>  <max response / %>
8.43

$$$$
>  <COMPOUND>
O=C(c1ccccc1)c1ccc(C(=O)N2CCN(c3ccccc3)CC2)cc1

>  <max response / %>
6.71

$$$$
>  <COMPOUND>
O=C(NN=Cc1ccc(N2CCOCC2)cc1)c1cc2ccccc2cc1O

>  <max response / %>
-58.2

$$$$
>  <COMPOUND>
O=C(Nc1cc(Br)ccc1F)c1nc[nH]c1C(=O)NCc1ccccc1

>  <max response / %>
32.1

$$$$
>  <COMPOUND>
COc1ccc(-c2ccc(C(=O)NCCN3CCOCC3)c3occc23)c(C)c1

>  <max response / %>
2.58

$$$$
>  <COMPOUND>
Cc1cccc(-c2cnc(C(O)c3ccc4ccccc4c3)[nH]2)c1 (stereo not drawn)

>  <max response / %>
-4.33

$$$$
>  <COMPOUND>
O=S1(=O)CC(N2CCN(Cc3ccccc3F)CC2)CN1Cc1cn(Cc2cccc(C(F)(F)F)c2)nn1 (stereo not drawn)

>  <max response / %>
4.9

$$$$
>  <COMPOUND>
COc1cc(C=C(OC(C)=O)c2ccc3c(c2)OCO3)cc(OC)c1OC

>  <max response / %>
3.06

$$$$
>  <COMPOUND>
OC(c1ccc(Cl)c(F)c1)c1ncc(-c2ccccc2Cl)[nH]1 (stereo not drawn)

>  <max response / %>
10.9

$$$$
